assay: xn = mol fraction of the nth substance listed, in the solute-free solvent; details: 303.15 K; x2 = 0.9
quantity_kind: solubility (g/100 g solution)
Give bare numbers.

Hi, could you look up solubility (g/100 g solution) for each item in my list?
1. CCCCOc1ccc(C(=O)CCN2CCCCC2)cc1.Cl + CCO + CCOC(C)=O
2. O=C(O)c1ccc(C(=O)O)o1 + C1COCCO1 + O
3. CC(=O)OC(c1ccccc1)C(Cl)(Cl)Cl (stereo not drawn) + CC(=O)O + O
4. CCCCOc1ccc(C(=O)CCN2CCCCC2)cc1.Cl + CO + C1CCOC1
5. O=C1CCc2ccc(OCCCCN3CCN(c4cccc(Cl)c4Cl)CC3)cc2N1 + CCC(C)=O + CC(C)=O
6. O=C1CCc2ccc(OCCCCN3CCN(c4cccc(Cl)c4Cl)CC3)cc2N1 + CCC(C)=O + CCCO
7. O=C(O)c1ccc(C(=O)O)o1 + O + COCCOC

Output:
1: 42.2; 2: 1.3; 3: 13.5; 4: 58.1; 5: 3.06; 6: 3.61; 7: 4.41

Every entry's value here was drawn from the CheMixHub drug solubility set.
